Data origin: patent US10519106B2

Would you kindly list log10 of IC50 for each of these molecules?
- MEASURED_TARGET: intracellular domain of DDR1 (Homo sapiens, UniProt Q08345)
- Construct: the intracellular domain of DDR1 (in a final concentration of 5 ng/μL) (Carna Biosciences, Inc.)
- Sequence (Q08345 444-876 isoform Q08345-2 limits assumed): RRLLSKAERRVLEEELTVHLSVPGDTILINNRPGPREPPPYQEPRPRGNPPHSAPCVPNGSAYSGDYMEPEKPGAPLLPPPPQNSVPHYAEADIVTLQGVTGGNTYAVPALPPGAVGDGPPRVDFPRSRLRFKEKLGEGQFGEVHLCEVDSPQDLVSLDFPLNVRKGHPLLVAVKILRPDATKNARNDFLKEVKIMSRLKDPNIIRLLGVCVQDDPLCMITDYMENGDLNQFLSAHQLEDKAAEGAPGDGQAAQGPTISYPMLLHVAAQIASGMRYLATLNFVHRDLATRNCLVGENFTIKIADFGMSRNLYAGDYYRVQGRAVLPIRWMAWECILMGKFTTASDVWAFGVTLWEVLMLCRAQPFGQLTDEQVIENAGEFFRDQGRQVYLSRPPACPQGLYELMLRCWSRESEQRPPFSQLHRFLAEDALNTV
- ASSAY_COMMENT: Evaluation of DDR1 inhibition activity with HTRF KinEASE-TK kit
- RECORDED_CONDITIONS: intracellular domain of DDR1 5 ng/μL, ATP 25 mol/L (so in the source), TK Substrate-biotin 1000 nmol/L, room temperature, one hour
Please keep in mind that the values are log10 of IC50 expressed in nM.

query: # return log10 of IC50 for COc1c(CO)cc(C(F)(F)F)cc1NC(=O)NCc1ccccc1OCc1ccc(C(N)=O)cc1 [Compound of Example 20] , test system: intracellular domain of DDR1 (Homo sapiens, UniProt Q08345)
result: 1.13

query: # return log10 of IC50 for NC(=O)c1ccc(Oc2ccccc2CNC(=O)Nc2cccc(C(F)(F)F)c2)cc1 [Compound of Example 32] , test system: intracellular domain of DDR1 (Homo sapiens, UniProt Q08345)
result: 1.24

query: # return log10 of IC50 for CNC(=O)c1ccc(Oc2ccccc2CNC(=O)Nc2cccc(C(F)(F)F)c2)cc1 [Compound of Example 42] , test system: intracellular domain of DDR1 (Homo sapiens, UniProt Q08345)
result: 1.33

query: # return log10 of IC50 for COC(=O)c1ccc(Oc2ccccc2CNC(=O)Nc2cc(OC(F)(F)F)ccc2OC)cc1 [Compound of Example 25] , test system: intracellular domain of DDR1 (Homo sapiens, UniProt Q08345)
result: 2.29

query: # return log10 of IC50 for COc1ccc(C(F)(F)F)cc1NC(=O)NCc1ccccc1Oc1ccc(C(=O)O)cc1 [Compound of Example 30] , test system: intracellular domain of DDR1 (Homo sapiens, UniProt Q08345)
result: 1.09
